# TARGET: DLG2_2, Q15700
# Sequence (Q15700 189-283): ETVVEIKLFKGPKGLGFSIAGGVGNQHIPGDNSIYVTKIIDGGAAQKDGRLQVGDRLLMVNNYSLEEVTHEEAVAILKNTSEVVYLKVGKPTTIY
# METHOD: holdup assay
# Set-up: key: below the threshold = too weak to quantify, mostly under pKd 3.1 to 4
# CONDITION CONTEXT: plain residues with an end cap or a label only (N-terminal biotin on a linker: ttds)
MEASURED PROPERTY: pKd

These recorded examples may help you get a feel for the data.
| BINDER | RESULT |
| --- | --- |
| IDNDTESTAL [ARHGAP17, Q68EM7] | below the threshold |
| PKTPPTDTSV [KIR3DL3, Q8N743] | below the threshold |
| IYVPEAQTRL [DLGAP4, Q9Y2H0] | below the threshold |
| TVASEKESVM [SLC1A5, Q15758] | below the threshold |

Now turn to the next binder.
Task: Any idea what pKd was measured for RSLEEEESQL [GRASP, Q7Z6J2] ?
Output: below the threshold
